inhibition at 1 µM: recorded values
System: MCF-7 cells
Assay: cells
Type: cell-based
Conditions: Homo sapiens, MCF7, 96 h; With estradiol (E2); 1 μM; read-out: Antagonism at 1 μM (% of full antagonism)

COMPOUND	inhibition at 1 µM
OCCOCCOc1ccc(/C(=C(/CCCl)c2ccccc2)c2ccccc2)cc1	21%
ClCC/C(=C(\c1ccccc1)c1ccc(OCCn2ccnc2)cc1)c1ccccc1	0%
CCC(CO)Oc1ccc(/C(=C(/CCCl)c2ccccc2)c2ccccc2)cc1 (stereo not drawn)	23%
COc1cccc(/C(CCCl)=C(/c2ccccc2)c2ccc(OCCN3CCCCC3)cc2)c1	18%
ClCC/C(=C(\c1ccccc1)c1ccc(OCCN2CCCCC2)cc1)c1ccccc1Cl	68%
ClCCOc1ccc(/C(=C(/CCCl)c2ccc(Cl)cc2)c2ccc(Cl)cc2)cc1	16%
